Values were extracted from paper doi:10.1101/2025.08.03.668247.

target.desc: T1, R785E (Drosophila melanogaster, UniProt Q9W1K4 512-819, R785E)
T1 sequence: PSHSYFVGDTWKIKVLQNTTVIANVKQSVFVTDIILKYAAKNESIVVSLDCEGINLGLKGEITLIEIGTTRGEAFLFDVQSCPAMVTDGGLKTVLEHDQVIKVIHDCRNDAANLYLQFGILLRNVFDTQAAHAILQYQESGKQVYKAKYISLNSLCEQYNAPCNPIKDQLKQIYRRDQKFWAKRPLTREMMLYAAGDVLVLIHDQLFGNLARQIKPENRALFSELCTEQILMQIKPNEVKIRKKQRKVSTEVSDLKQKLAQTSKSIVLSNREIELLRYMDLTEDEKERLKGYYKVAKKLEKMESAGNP
assay.explanation: fluorescence anisotropy; FA: 20 mM HEPES-NaOH pH 7.5, 100 mM NaCl, 10% glycerol, 20 C, 10 nM FAM-RNA; competition: 150 nM Egl512-819 + 10 nM FAM-K10 TLS, same buffer
study.conditions: protein: recombinant; tags: N-terminal GST; label: 5'-6-FAM; hairpin with two bulges
measurement.type: pKd
Numbers only, as −log10 of the molar value.

query: Give the value of pKd reported for the following: CUUGAUUGUAUUUUUAAAUUAAUUCUUAAAAACUACAAAUUAAG (structured_RNA) [K10 TLS (FAM)]
result: 6.68
